- Tested on: Pseudomonas aeruginosa
- method description: Antibacterial activity against Pseudomonas aeruginosa ATCC 10145 assessed as growth inhibition after 24 to 48 hrs by kirby-bauer disc diffusion method; also: test concentration or dose not given here
- Type: functional
Would you please tag the item 1 when its diameter of the inhibition zone (DIZ) is 10 mm or above, and -1 when it is below?

[
  {
    "molecule": "COc1cc(-c2nc3sc4c(c3c(=O)n2-c2nc3cc(C)ccc3s2)CCCC4)cc(OC)c1OC",
    "tested system": "Pseudomonas aeruginosa",
    "discrete label": 1
  },
  {
    "molecule": "COc1cc(-c2nc3sc4c(c3c(=O)n2C2CONC2=O)CCCC4)cc(OC)c1OC (centres undefined)",
    "tested system": "Pseudomonas aeruginosa",
    "discrete label": 1
  },
  {
    "molecule": "COc1cc(-c2nc3sc4c(c3c(=O)n2C(Cc2cc3ccccc3[nH]2)C(=O)O)CCCC4)cc(OC)c1OC (centres undefined)",
    "tested system": "Pseudomonas aeruginosa",
    "discrete label": -1
  }
]

Ask: Has O=C(O)C(Cc1cc2ccccc2[nH]1)n1c(/C=C/c2ccccc2)nc2sc3c(c2c1=O)CCCC3 (centres undefined) a recorded diameter of the inhibition zone (DIZ) greater than or equal to 10 mm?
Reply: -1

Ask: Has O=C1NOCC1n1c(/C=C/c2ccccc2)nc2sc3c(c2c1=O)CCCC3 (centres undefined) a recorded diameter of the inhibition zone (DIZ) greater than or equal to 10 mm?
Reply: 1

Ask: Has COc1cc(-c2nc3sc4c(c3c(=O)n2C(Cc2ccccc2)C(=O)O)CCCC4)cc(OC)c1OC (centres undefined) a recorded diameter of the inhibition zone (DIZ) greater than or equal to 10 mm?
Reply: 1

Ask: Has Cc1c2ccc(N)cc2nc2cc(-n3c(/C=C/c4ccccc4)nc4sc5c(c4c3=O)CCCC5)ccc12 a recorded diameter of the inhibition zone (DIZ) greater than or equal to 10 mm?
Reply: 1

---

- System: Pseudomonas aeruginosa
- method description: Antibacterial activity against Pseudomonas aeruginosa ATCC 10145 assessed as growth inhibition after 24 to 48 hrs by kirby-bauer disc diffusion method; also: test concentration or dose not given here
- Type: functional
Parameter: diameter of the inhibition zone (DIZ). Scope: all listed entries.
Just the number in mm, nothing appended.

Ask: Hello, I am looking for reported diameter of the inhibition zone (DIZ) with Pseudomonas aeruginosa for O=c1[nH]c(/C=C/c2ccccc2)nc2sc3c(c12)CCCC3 . Could you help?
Reply: 0

---

Parameter: diameter of the inhibition zone (DIZ). Scope: all listed entries.
- Tested on: Pseudomonas aeruginosa
- method description: Antibacterial activity against Pseudomonas aeruginosa ATCC 10145 assessed as growth inhibition after 24 to 48 hrs by kirby-bauer disc diffusion method; also: test concentration or dose not given here
- Type: functional
Please report the result as a number followed by the unit.

Below: 4 compounds and their reported diameter of the inhibition zone (DIZ).
[
  {
    "compound smiles": "O=c1cc(-n2c(/C=C/c3ccccc3)nc3sc4c(c3c2=O)CCCC4)[nH]c(=O)[nH]1",
    "diameter of the inhibition zone (DIZ)": "15 mm"
  },
  {
    "compound smiles": "COc1cc(-c2nc3sc4c(c3c(=O)n2C(=O)NO)CCCC4)cc(OC)c1OC",
    "diameter of the inhibition zone (DIZ)": "13 mm"
  },
  {
    "compound smiles": "COc1cc(-c2nc(NC(=O)NO)c3c4c(sc3n2)CCCC4)cc(OC)c1OC",
    "diameter of the inhibition zone (DIZ)": "0 mm"
  },
  {
    "compound smiles": "O=C(NO)n1c(/C=C/c2ccccc2)nc2sc3c(c2c1=O)CCCC3",
    "diameter of the inhibition zone (DIZ)": "14 mm"
  }
]

Ask: Reported diameter of the inhibition zone (DIZ), compound COc1cc(-c2nc3sc4c(c3c(=O)n2-c2nc3cc([N+](=O)[O-])ccc3s2)CCCC4)cc(OC)c1OC : ____
Reply: 14 mm

Ask: Reported diameter of the inhibition zone (DIZ), compound O=c1c2c3c(sc2nc(/C=C/c2ccccc2)n1-c1nc2ccccc2s1)CCCC3 : ____
Reply: 14 mm

Ask: Reported diameter of the inhibition zone (DIZ), compound COc1cc(-c2nc3sc4c(c3c(=O)n2C(N)=S)CCCC4)cc(OC)c1OC : ____
Reply: 13 mm

Ask: Reported diameter of the inhibition zone (DIZ), compound Cc1c2ccc(N)cc2nc2cc(Nc3nc(/C=C/c4ccccc4)nc4sc5c(c34)CCCC5)ccc12 : ____
Reply: 12 mm

---

- System: Pseudomonas aeruginosa
- method description: Antibacterial activity against Pseudomonas aeruginosa ATCC 10145 assessed as growth inhibition after 24 to 48 hrs by kirby-bauer disc diffusion method; also: test concentration or dose not given here
- Assay type: functional
experimental readout: diameter of the inhibition zone (DIZ) (mm)
Just the number in mm, nothing appended.

[
  {
    "compound": "NS(=O)(=O)c1ccc(-n2c(/C=C/c3ccccc3)nc3sc4c(c3c2=O)CCCC4)cc1",
    "diameter of the inhibition zone (DIZ) (mm)": 15
  }
]

Ask: Reported diameter of the inhibition zone (DIZ), compound COc1cc(-c2nc3sc4c(c3c(=O)n2-c2ccc(S(N)(=O)=O)cc2)CCCC4)cc(OC)c1OC : ____
Reply: 13

Ask: Reported diameter of the inhibition zone (DIZ), compound C/C(=C\c1ccccc1)c1nc2sc3c(c2c(=O)[nH]1)CCCC3 : ____
Reply: 0

Ask: Reported diameter of the inhibition zone (DIZ), compound O=C(O)c1ccc(-n2c(/C=C/c3ccccc3)nc3sc4c(c3c2=O)CCCC4)cc1 : ____
Reply: 14

Ask: Reported diameter of the inhibition zone (DIZ), compound O=C(O)C(Cc1ccccc1)n1c(/C=C/c2ccccc2)nc2sc3c(c2c1=O)CCCC3 (stereo unspecified) : ____
Reply: 14

Ask: Reported diameter of the inhibition zone (DIZ), compound O=c1[nH]c(/C=C/c2ccccc2[N+](=O)[O-])nc2sc3c(c12)CCCC3 : ____
Reply: 0

---

Parameter: diameter of the inhibition zone (DIZ). Scope: all listed entries.
- Tested on: Pseudomonas aeruginosa
- method description: Antibacterial activity against Pseudomonas aeruginosa ATCC 10145 assessed as growth inhibition after 24 to 48 hrs by kirby-bauer disc diffusion method; also: test concentration or dose not given here
- Format: functional
Just the number in mm, nothing appended.

Below: 3 compounds and their reported diameter of the inhibition zone (DIZ).
[
  {
    "compound smiles": "COc1cc(-c2nc3sc4c(c3c(=O)n2-c2ccc(C(=O)O)cc2)CCCC4)cc(OC)c1OC",
    "tested system": "Pseudomonas aeruginosa",
    "unit abbreviation": "mm",
    "diameter of the inhibition zone (DIZ)": 10
  },
  {
    "compound smiles": "COc1cc(-c2nc3sc4c(c3c(=O)n2-c2cc(=O)[nH]c(=O)[nH]2)CCCC4)cc(OC)c1OC",
    "tested system": "Pseudomonas aeruginosa",
    "unit abbreviation": "mm",
    "diameter of the inhibition zone (DIZ)": 14
  },
  {
    "compound smiles": "NC(=S)n1c(/C=C/c2ccccc2)nc2sc3c(c2c1=O)CCCC3",
    "tested system": "Pseudomonas aeruginosa",
    "unit abbreviation": "mm",
    "diameter of the inhibition zone (DIZ)": 13
  }
]

Now for another entry.
Ask: Hello, I am looking for reported diameter of the inhibition zone (DIZ) with Pseudomonas aeruginosa for COc1cc(-c2nc3sc4c(c3c(=O)n2-c2nc3ccccc3s2)CCCC4)cc(OC)c1OC . Could you help?
Reply: 15
